Where these numbers come from: the supplement of paper PMC4466140

# testTarget: SpNbp2
# assay: SPOT peptide array binding signal intensity (averaged, normalized) (arbitrary units (background-subtracted, floor 0; scale differs between SH3 domains)); higher = stronger binding of the SH3 domain to the peptide
propertyName: SPOT peptide array binding signal intensity

>  <binder>
TPTSGPPLLPPRNTM

>  <readoutValue>
≤ 0

$$$$
>  <binder>
DGNEEKPLLPTRPNK

>  <readoutValue>
≤ 0

$$$$
>  <binder>
AERNYAPRLPRRETS

>  <readoutValue>
≤ 0

$$$$
